Measured IC50 accompanies every entry in the list below.
Tested on: C-4-II
Assay: SANGER: Inhibition of human C-4-II cell growth in a cell viability assay.
Format: functional, cell-based

>  <molecular-string>
C=CCc1cccc(/C=N/NC(=O)CN2CCN(Cc3ccccc3)CC2)c1O

>  <IC50>
> 2.56 µM

$$$$
>  <molecular-string>
CN(c1ncccc1CNc1nc(Nc2ccc3c(c2)CC(=O)N3)ncc1C(F)(F)F)S(C)(=O)=O

>  <IC50>
> 2.56 µM

$$$$
>  <molecular-string>
Cc1cc([C@@H](C)Nc2ccccc2C(=O)O)c2nc(N3CCOCC3)cc(=O)n2c1

>  <IC50>
> 5.12 µM

$$$$
>  <molecular-string>
CCC1=C[C@@H]2CN(C1)Cc1c([nH]c3ccccc13)[C@@](C(=O)OC)(c1cc3c(cc1OC)N(C)[C@H]1[C@@](O)(C(=O)OC)[C@H](OC(C)=O)[C@]4(CC)C=CCN5CC[C@]31[C@@H]54)C2

>  <IC50>
0.023 µM

$$$$

Source: ChEMBL document CHEMBL1201861
